target: β-secretase(BACE) (Homo sapiens, UniProt P56817); construct: purchased Panvera; assay: BACE Assay-2 (FS1 substrate, IC50 and Ki); type: biochemical; conditions: procedure of Example 159, FS1 substrate
Sequence (P56817 46-501): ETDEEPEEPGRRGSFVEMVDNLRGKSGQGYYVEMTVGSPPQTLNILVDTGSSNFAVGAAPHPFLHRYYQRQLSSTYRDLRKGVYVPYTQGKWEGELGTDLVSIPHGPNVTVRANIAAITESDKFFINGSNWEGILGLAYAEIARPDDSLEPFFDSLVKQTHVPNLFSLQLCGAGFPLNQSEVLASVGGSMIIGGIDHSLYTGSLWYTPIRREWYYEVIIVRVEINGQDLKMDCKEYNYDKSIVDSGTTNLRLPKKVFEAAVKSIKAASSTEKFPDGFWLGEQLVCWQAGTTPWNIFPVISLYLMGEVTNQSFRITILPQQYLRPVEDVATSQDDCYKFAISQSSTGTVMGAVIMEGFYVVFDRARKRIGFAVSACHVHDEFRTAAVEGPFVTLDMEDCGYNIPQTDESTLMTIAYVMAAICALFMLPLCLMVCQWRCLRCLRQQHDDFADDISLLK
Decide using IC50 alone. Strictly below 2 µM: 1 (yes). Equal to or above 2 µM: 0 (no).

For this compound, is IC50 lower than 2 µM? CN(C(=O)c1cc(CN2Cc3cc(Oc4ccccc4)ccc3N=C2N)ccn1)C1CCCCC1 [Compound 89]
1 (yes)

Find out if reported IC50 for CCCN1Cc2cc(Oc3cccc(NS(=O)(=O)c4ccccc4)c3)ccc2N=C1N [Compound 61] is less than 2 µM
1 (yes)

Determine whether this compound shows IC50 lower than 2 µM (ties excluded): CCCN1Cc2cc(Oc3cccc(NCC4CCCCC4)c3)ccc2N=C1N [Compound 55]
0 (no)

# strict comparison: is reported IC50 < 2 µM? input = CN(CCN1Cc2cc(C(=O)c3ccccc3)ccc2N=C1N)C(=O)C1CCCCC1 [Compound 23]
0 (no)

Could you please tell me whether IC50 recorded for CN(CCc1ccccc1)C(=O)CCCCN1Cc2cc(C(=O)c3ccccc3)ccc2N=C1N [Compound 50] is less than 2 µM?
0 (no)

Below 2 µM on IC50? Entry CCCN1Cc2cc(Oc3cccc(NC(=O)CCCC(=O)N(C)C4CCCCC4)c3)ccc2N=C1N [Compound 755]
1 (yes)

Please state whether IC50 is below 2 µM for NC1=Nc2ccc(C(=O)c3ccccc3)cc2CN1CCCCNC(=O)C1CCCCC1 [Compound 30]
0 (no)
